- experimental_system: T1, rhIL-1RAcP/Fc Chimera (human, UniProt Q9NPH3 21-359)
- T1 construct: also called P013_03; P013-03
- T1 sequence (looked up): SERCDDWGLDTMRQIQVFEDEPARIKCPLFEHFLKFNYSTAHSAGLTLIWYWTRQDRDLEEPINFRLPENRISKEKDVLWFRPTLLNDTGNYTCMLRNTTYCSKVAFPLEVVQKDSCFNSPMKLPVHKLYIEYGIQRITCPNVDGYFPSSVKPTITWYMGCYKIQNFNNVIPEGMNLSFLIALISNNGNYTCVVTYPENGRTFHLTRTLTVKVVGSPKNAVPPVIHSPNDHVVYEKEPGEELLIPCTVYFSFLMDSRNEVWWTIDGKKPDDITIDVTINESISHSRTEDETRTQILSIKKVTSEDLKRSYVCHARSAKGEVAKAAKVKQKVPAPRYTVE
- assay_remarks: ELISA, recombinant purified mAb
Parameter: EC50. Scope: all listed entries.

{"binder": "P013.S.01.B.H04 (antibody, V domains shown, rabbit monoclonal antibody; also called P013.A.00014.G05) VH: QSVEESGGRLVTPGTPLTLTCTVSGFSLDSYAMGWVRQAPGKGLEWIGIINSYGSIYYASWAKGRFTISKTSTTVDLKMTSLTTEDTATYFCARSAYSNNGDRLHLWGQGTLVTVSS VL: DIVMTQTPSPVSGAVGGTVTIKCQASEDIYSNLAWYQQKPGQPPKLLIYYVSTLESGVPSRFKGSRSGTDYTLTISDLESADAATYYCQCTEGGSGSDYTFGGGTEVVVK", "EC50 [µg/mL]": 0.062}
{"binder": "P013.S.01.B.E05 (antibody, V domains shown, rabbit monoclonal antibody; also called P013.A.00086.F02) VH: QSLEESGGDLVKPGASLTLTCTASGISFSSSDFMCWVRQAPGKGLEWIACIYAGSSVSIYYATWAKGRFTISKASSTTVTLQMASLTVADTATYFCARSTGSVGRGFNLWGQGTLVTVSS VL: AQVLTQTPSPVSAAVGGTVTISCQASQSVYNSNHLSWYQQKPGQPPRLLIYSASTLASGVPSRFKGSGSGTQFTLTISGVQSDDAATYYCQGEFSCVSADCIAFGGGTEVVVK", "EC50 [µg/mL]": 0.966}
{"binder": "P013.S.02.B.A01 (antibody, V domains shown, rabbit monoclonal antibody; also called P013.A.00087.A07) VH: QSVEESGGRLVTPGTPLTLTCTVSGFSLSSYYMSWVRQAPGKGLEWIGYIYAAGPITYYATWAKGRFTISKTSTTVDLKITSPTTEDTATYFCVRDGSGSGTYGYNGMDLWGPGTLVTVSS VL: AYDMTQTPASVEAAVGGTVTIKCQASQSISNWLAWYQQKPGQRPKLLIYRASTLASGVSSRFKGSGSGTQFTLTISGVESADAATYYCQQGASTTDVDNVFGGGTEVVVK", "EC50 [µg/mL]": 0.073}
{"binder": "P013.S.01.B.C05 (antibody, V domains shown, rabbit monoclonal antibody; also called P013.A.00045.E06) VH: QSVEESGGRLVTPGTPLTLTCTVSGFSLSNYAMSWVRQAPGKGLEYIGIIDSGGSAYYATWARGRFTISRTSTTVDLKMTSPTTEDTATYFCARGGPAYSTNTHYTLDLWGPGTLVTVSS VL: AFEMTQTPSSVSEPVGGTVTIKCQASQSIYNYLSWYQQKPGQPPKLLIYDASELASGVPSRFKGSGSGTEFTLTISGVQSDDAATYYCQQGATTYNIENVFGGGTEVVVK", "EC50 [µg/mL]": 0.038}
{"binder": "P013.S.01.B.C02 (antibody, V domains shown, rabbit monoclonal antibody; also called P013.A.00014.C10) VH: QSLEESGGDLVKPGASLTLTCTASGFSFSSSHYMCWVRQAPGKGLEWIACIYAGSSGNTYYANWAKGRFTISKTSSTTVTLQMTSLTAADTATYFCARVDASSSGSWDLWGPGTLVTVSS VL: AIEMTQTPFSVSAAVGGTVTINCQASESIYSNLAWYQQILGQPPKLLIYAASLLASGVPSRFKGSGSGTEYTLTISGVQSADAATYYCQSASYSTGPDWTFGGGTEVVVE", "EC50 [µg/mL]": 0.105}
